Would you kindly list Efficacy for each of these compounds?
# experimental_target: Hepatocyte nuclear factor 4-alpha (Rattus norvegicus)
# Sequence (whole entry): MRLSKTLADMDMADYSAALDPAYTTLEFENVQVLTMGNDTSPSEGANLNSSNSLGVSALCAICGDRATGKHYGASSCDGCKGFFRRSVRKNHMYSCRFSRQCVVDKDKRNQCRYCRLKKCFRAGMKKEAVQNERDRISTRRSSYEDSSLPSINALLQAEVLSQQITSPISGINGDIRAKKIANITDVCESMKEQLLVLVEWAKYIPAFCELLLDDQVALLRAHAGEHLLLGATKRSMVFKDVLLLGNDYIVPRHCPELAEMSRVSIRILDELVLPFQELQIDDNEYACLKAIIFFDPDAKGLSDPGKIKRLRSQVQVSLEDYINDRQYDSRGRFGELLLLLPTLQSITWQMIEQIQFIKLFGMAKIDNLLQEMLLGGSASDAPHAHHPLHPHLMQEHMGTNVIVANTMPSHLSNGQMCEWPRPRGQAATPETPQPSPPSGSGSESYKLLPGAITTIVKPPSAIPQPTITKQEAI
# experimental_protocol: Agonist activity at rat HNF4alpha1 expressed in African green monkey CV1 cells incubated for 24 hrs by firefly luciferase reporter gene assay relative to LGOI00695
# Format: functional, cell-based
# assay_context: CV-1
Numbers only, in %.

# count of solved cases: 3
>>> experimental_value("O=C(O)c1ccc(C2Nc3ccc4ccccc4c3[C@H]3OCC[C@@H]23)cc1 (relative stereo)")
42
>>> experimental_value("COC(=O)c1ccc([C@H]2Nc3ccccc3[C@H]3OCCC[C@@H]23)cc1 (relative stereo)")
165
>>> experimental_value("Cc1cc2c(cc1C)[C@H]1OCCC[C@H]1[C@@H](c1ccc(C(=O)O)cc1)N2 (relative stereo)")
60

Could you now consider this next compound?
Field Efficacy (entry O=C(O)Cc1ccc([C@H]2Nc3ccccc3[C@H]3OCCC[C@@H]23)cc1 (relative stereo) ) reads 134

====

Would you kindly list EC50 for each of these molecules?
# experimental_target: Hepatocyte nuclear factor 4-alpha (Rattus norvegicus)
# experimental_protocol: Agonist activity at rat HNF4alpha1 expressed in African green monkey CV1 cells incubated for 24 hrs by firefly luciferase reporter gene assay
Numbers only, in nM.

# count of solved cases: 3
>>> experimental_value("COC(=O)c1ccc([C@H]2Nc3ccccc3[C@H]3OCCC[C@@H]23)cc1 (relative stereo)")
426
>>> experimental_value("Cc1cc2c(cc1C)[C@H]1OCCC[C@H]1[C@@H](c1ccc(C(=O)O)cc1)N2 (relative stereo)")
1730
>>> experimental_value("O=C(O)c1ccc(C2Nc3ccc4ccccc4c3[C@H]3OCC[C@@H]23)cc1 (relative stereo)")
778

Could you now consider this next molecule?
Field EC50 (entry O=C(O)Cc1ccc([C@H]2Nc3ccccc3[C@H]3OCCC[C@@H]23)cc1 (relative stereo) ) reads 649
